Overview of recorded Percent Effect for various molecules
# System: Trypanosoma cruzi
# experimentNotes: Trypanosoma cruzi phosphomannomutase and mannose-1-phosphate guanylyltransferase assay
# Type: functional
# Set-up: scale not given: direction of the effect not stated beside the values
# protocolConditions: 10 µM
Answer format: numeric, % implied, no suffix.

# molecule, unitString, Percent Effect
measured = [
    ("O=C(O)c1cc(S(=O)(=O)Nc2ccc(Cl)cc2)cc2c1OCCO2", "%", -2.97),
    ("CC(=O)N1CCC2(CC1)C(=O)N(CC1CC1)c1ccccc12", "%", -3.56),
    ("CC(Nc1cccc(CN2CCOC2=O)c1)C(=O)NC(N)=O (stereo unspecified)", "%", 13.1),
]

Identify measured Percent Effect corresponding to Cn1ncc(C(=O)N2CCCC(n3cccn3)C2)c1C1CC1 (stereo unspecified) -3.61

Return Percent Effect (reported value) for this molecule: O=C(NCC(O)c1cccs1)c1cccc(Cl)c1 (stereo unspecified) 3.72

====

# testedSystem: Arginase-2, mitochondrial (Homo sapiens)
# experimentNotes: in vitro enzyme assay to detect the production of urea directly proportional to the activity of Arginase II; further: in the data most compounds retested in dose-response had high values
# Assay type: functional
# Parameters: scale not given: direction of the effect not stated beside the values
# protocolConditions: 33.3 µM
reportedEndpoint: Percent Effect
Just the number plus its unit, please.

# molecule, Percent Effect
measured = [
    ("COC[C@@]12CC[C@@H](N3CCOCC3)C[C@H]1CCN(c1ncccn1)C2", "19.9%"),
    ("CN(C)CC1CN(c2ccc(C#N)cn2)CCO1 (configuration not stated)", "-4.32%"),
]

Dear colleague, please send me the reported Percent Effect for O=C(CCC1CCN(Cc2ncc[nH]2)CC1)Nc1ccccc1Cl when you can. -2.45%

Give me measured Percent Effect, please, for this molecule: Cc1ccc(CN2CCn3cc(CN(C)Cc4ccco4)nc3C2)o1 -9.68%

Look up and report measured Percent Effect for this entry: CCN(CC)C(=O)c1ccn(COc2ccccc2)n1 -2.99%

Give Percent Effect for the following molecule: CC(C)CN1CCCn2nc(CNC(=O)CCN)cc2C1 3.65%

Return Percent Effect (reported value) for this molecule: O=C(NCc1cn2c(n1)CN(CC1CCOCC1)CC2)C1CCC1 -1.25%

Query Percent Effect for c1cnnc(N2CCCC(NCc3ccc(-n4ccnc4)cc3)C2)c1 (configuration not stated) 1.9%

====

# testedSystem: Proteasome subunit beta (Trypanosoma cruzi)
# experimentNotes: Trypanosoma cruzi proteasome chymotrypsin-like activity (TcProtChymo) assay. Further: in the data most compounds retested in dose-response had high values.
# Type: functional
# Set-up: scale not given: direction of the effect not stated beside the values
# protocolConditions: 9.37 µM
reportedEndpoint: Percent Effect (%)
Write the number in % without appending the unit.

Examples from the recorded data:
# compound, recordedResult
rows = [
    ("O=S(=O)(CCCN1CCCC1Cn1cncn1)c1ccccc1 (stereo not drawn)", 17.4),
    ("Cc1cn2c(n1)CCC(NC(=O)c1c[nH]c(C)n1)C2 (stereo not drawn)", 10.9),
    ("Cc1nsc(NC(=O)N2CCN(Cc3ccc(F)cc3)C(=O)C2)n1", 4.45),
]

Specify measured Percent Effect for O=C(CCn1ccccc1=O)Nc1ccc(I)cc1 . 16.6

For the compound COCC1c2nnn(CC3CC3)c2CCN1C(=O)c1ccnnc1 (stereo not drawn) , give its reported Percent Effect. 3.86

Identify the reported Percent Effect for the following entry. Cc1c(F)cc(C(=O)O)cc1S(=O)(=O)Nc1ccc2c(c1)OCCO2 2.82

Identify Percent Effect associated with the compound N#CC1(C(=O)NCCCNc2ccc(C(F)(F)F)cn2)CCCC1 7.18

For the compound Cc1ccn2cc(C(=O)N3CCCC3c3c(C)nn(C)c3C)nc2c1 (stereo not drawn) , give its reported Percent Effect. 9.09

Output measured Percent Effect for this item: CC(CN1CCC2(CC1)c1nc[nH]c1CCN2S(C)(=O)=O)C(F)(F)F (stereo not drawn) 8.07

Recall and state the measured Percent Effect for O=C(Nc1cccnc1)[C@H]1C[C@H]2OCC[C@H]2N(C(=O)c2ccsc2)C1 . 10.5

# return recorded Percent Effect for entry Cc1cc(C)n(CC2CCCN2C(=O)c2ccc3[nH]nnc3c2)n1 (stereo not drawn) 14.4

Respond only with Percent Effect recorded for CN(CCO)C(=O)c1coc(CN2CCN(c3ccccc3F)CC2)n1 20.2

Identify the reported Percent Effect for the following entry. Cc1cc(C(=O)N2CCCCC2c2nc(C)cs2)[nH]n1 (stereo not drawn) -2.03

Kindly indicate its recorded Percent Effect. Item: Cc1nc(C)n(CC2CN(CCCOc3ccccc3C)CCO2)n1 (stereo not drawn) 0.763

Supply measured Percent Effect of Cc1noc(C(C)C)c1C(=O)N1CCCN(Cc2cscn2)CC1 in your reply. 15.6

// Input: COc1cc(N2CCCC(c3nccn3CCN(C)C)C2)nc(N)n1 (stereo not drawn) . Output its Percent Effect only. 4.62

Return Percent Effect (reported value) for this compound: CC(=O)NC(C)c1ccc(OCC2CC2)c(F)c1 (stereo not drawn) 4.7

====

# testedSystem: Arginase-2, mitochondrial (Homo sapiens) (UniProt P78540)
# Sequence (P78540 whole entry): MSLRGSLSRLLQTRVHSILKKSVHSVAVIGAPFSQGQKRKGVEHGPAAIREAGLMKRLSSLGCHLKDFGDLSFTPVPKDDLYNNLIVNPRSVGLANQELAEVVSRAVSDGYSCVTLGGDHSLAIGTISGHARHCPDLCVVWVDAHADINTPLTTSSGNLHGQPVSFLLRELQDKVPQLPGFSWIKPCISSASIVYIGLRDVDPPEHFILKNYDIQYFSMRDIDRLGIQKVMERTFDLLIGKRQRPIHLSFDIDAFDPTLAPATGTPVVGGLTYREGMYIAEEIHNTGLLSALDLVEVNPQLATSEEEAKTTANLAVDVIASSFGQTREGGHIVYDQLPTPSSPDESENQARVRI
# experimentNotes: in vitro enzyme assay to detect the production of urea directly proportional to the activity of Arginase II; further: in the data most compounds retested in dose-response had high values
# Type: functional
# Design: scale not given: direction of the effect not stated beside the values
# protocolConditions: 33.3 µM
reportedEndpoint: Percent Effect (%)
Note: unit % is implicit; provide only the numeric part.

Sample records with Percent Effect:
# compound, Percent Effect [%]
measured = [
    ("CN1[C@H](CN2CCCC2)C[C@@H]2CN(C(=O)c3cccn3C)CC[C@@H]21", -0.457),
    ("CN(CC(=O)N1CCC(C(O)c2ccccc2)CC1)c1cnccn1 (centres undefined)", -2.77),
    ("CCCn1c(C)cc(C(=O)CN2C(=O)c3ccccc3CS2(=O)=O)c1C", 1.91),
]

Identify Percent Effect associated with the compound Cc1cccc(-c2noc(CN3CC(n4cc(C)cn4)C3)n2)c1 -2.85

Please report Percent Effect for the following compound: Clc1snnc1CN1CCOC(CNc2cccnn2)C1 (centres undefined) 5.34

Supply measured Percent Effect of COc1nc(C)cc(C)c1CNC(=O)N(C)Cc1cnn(C)c1 in your reply. -2.4

Annotate the compound O=C1[C@H]2CN(c3ncccn3)C[C@H]2CN1Cc1ccncc1 with its measured Percent Effect. -0.417

Note down Percent Effect recorded for CC(C)c1noc(CCC(=O)NCC2CCOC2)n1 (centres undefined) -5.32

====

# testedSystem: Ubiquitin-activating enzyme e1, putative (Leishmania donovani (strain BPK282A1)) (UniProt E9BSI1)
# Sequence (E9BSI1 as listed by the source): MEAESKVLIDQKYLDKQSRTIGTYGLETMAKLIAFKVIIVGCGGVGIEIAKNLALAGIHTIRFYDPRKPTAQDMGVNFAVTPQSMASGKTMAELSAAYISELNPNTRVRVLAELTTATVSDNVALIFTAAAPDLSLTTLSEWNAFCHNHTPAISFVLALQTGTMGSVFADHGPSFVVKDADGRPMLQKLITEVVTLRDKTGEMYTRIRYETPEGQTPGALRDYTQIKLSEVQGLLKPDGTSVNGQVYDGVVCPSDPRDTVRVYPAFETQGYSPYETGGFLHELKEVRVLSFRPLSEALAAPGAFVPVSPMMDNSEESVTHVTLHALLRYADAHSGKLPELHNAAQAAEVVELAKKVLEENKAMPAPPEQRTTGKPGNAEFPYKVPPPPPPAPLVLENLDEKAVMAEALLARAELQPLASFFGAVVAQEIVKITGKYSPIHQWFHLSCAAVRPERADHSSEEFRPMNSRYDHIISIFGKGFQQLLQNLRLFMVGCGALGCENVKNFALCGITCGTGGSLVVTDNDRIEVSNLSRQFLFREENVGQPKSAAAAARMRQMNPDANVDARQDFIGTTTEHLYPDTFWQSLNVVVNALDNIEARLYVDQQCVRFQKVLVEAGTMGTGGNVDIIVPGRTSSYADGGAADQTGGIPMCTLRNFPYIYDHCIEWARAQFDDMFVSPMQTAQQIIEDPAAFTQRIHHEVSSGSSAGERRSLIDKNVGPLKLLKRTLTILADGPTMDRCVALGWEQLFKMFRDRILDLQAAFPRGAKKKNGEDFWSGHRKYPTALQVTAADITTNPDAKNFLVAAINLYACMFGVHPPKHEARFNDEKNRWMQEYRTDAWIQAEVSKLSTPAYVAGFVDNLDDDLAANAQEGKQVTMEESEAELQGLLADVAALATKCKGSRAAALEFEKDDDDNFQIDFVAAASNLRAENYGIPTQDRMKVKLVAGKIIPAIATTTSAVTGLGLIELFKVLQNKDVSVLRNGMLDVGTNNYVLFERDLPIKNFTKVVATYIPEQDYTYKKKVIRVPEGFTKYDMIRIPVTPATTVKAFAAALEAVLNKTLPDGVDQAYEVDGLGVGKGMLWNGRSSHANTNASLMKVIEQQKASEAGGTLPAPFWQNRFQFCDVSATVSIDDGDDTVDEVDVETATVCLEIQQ
# experimentNotes: Leishmania donovani Ubiquitin Activating Enzyme (LdE1)
# Assay type: functional
# Parameters: scale not given: direction of the effect not stated beside the values
# protocolConditions: 30 µM
Results with a measured potency or affinity are listed apart.
Could you label it met if measured Percent Effect is 10% or higher, and not met otherwise?

A selection of reference data follows.
# compound, labelClass
data = [
    ("CCO[C@H]1CO[C@@]2(CCCN(S(=O)(=O)c3ccccc3)C2)C1", "met"),
    ("c1ccc(-n2ncc(CN3CCCC3Cn3cccn3)n2)cc1 (stereo not drawn)", "not met"),
    ("CCc1n[nH]c(C2CN(C(=O)c3ccsc3)CCO2)n1 (stereo not drawn)", "not met"),
    ("CCCOCCCNc1nccc(-c2cn(C)nc2C)n1", "not met"),
    ("Cc1cc(C(=O)N2CCC(c3nccn3CCCN(C)C)CC2)no1", "met"),
    ("O=C1CCC2(CCCN(C(=O)c3cscn3)C2)CN1CCc1c[nH]cn1 (stereo not drawn)", "not met"),
    ("c1cnc(N2CCC3(CC2)CN(CC2CC2)c2ccccc23)nc1", "not met"),
    ("CC(C)c1nc2c(n1C)CCN(CC(=O)Nc1nccs1)C2", "met"),
]

Consider the record given below.
Exam item: decide whether the reported Percent Effect for CC(C)c1nnc(CN2CCCC2Cn2cncn2)o1 (stereo not drawn) is at least 10%. met

====

# testedSystem: Tyrosyl-tRNA synthetase, putative (Trypanosoma cruzi (strain CL Brener))
# experimentNotes: Trypanosoma cruzi tyrosyl tRNA synthetase (TcYRS) _High Tyrosine SOP; further: in the data most compounds retested in dose-response had high values
# Type: functional
# Design: scale not given: direction of the effect not stated beside the values
# protocolConditions: 30 µM
reportedEndpoint: Percent Effect (%)
Just the number in %, nothing appended.

As a guide, the following entries are already answered.
# compound, Percent Effect (%)
measured = [
    ("CC(C)n1ccnc1C1CCN(C(=O)c2cc[nH]n2)CC1", 7.98),
    ("CNC(=O)CS(=O)(=O)Cc1coc(-c2ccc(OC)cc2)n1", 2.65),
    ("Cc1n[nH]c(C)c1NC(=O)CN1CCOC(Cn2cccn2)C1 (centres undefined)", 3.81),
    ("CCCn1ccc2ccc(NC(=O)N(C)CCOC)cc21", 1.06),
    ("CCN1CCN(C2CCN(Cc3c(C)noc3C)CC2)C1=O", 6.4),
    ("COCCC(=O)N1C[C@H]2CN(Cc3cccc(C)n3)C(=O)[C@H]2C1", 7.73),
    ("Cc1nc(CN2C(=O)CC[C@@H]3[C@H]2CCN3C(=O)NC2CC2)cs1", 1.08),
    ("Cc1ccsc1CN(Cc1ccccn1)CC(C)C", 7.37),
    ("Cc1nc(C)n(CC2CN(CC(=O)Nc3cccnc3)CCO2)n1 (centres undefined)", 4.21),
    ("Cc1cc(C)n(-c2cncc(NCCNC(=O)C(C)C)n2)n1", 4.3),
]

Tell me measured Percent Effect for COc1ccc(CC(=O)N2CCCC(n3cc(C)cn3)C2)cc1F (centres undefined) please. 2.63

Please indicate Percent Effect recorded for CC(C)C(C)NC(=O)Nc1ccccc1CN1CCOCC1 (centres undefined) 6.45

Provide one value: measured Percent Effect of COCCCNC(=O)CCn1nc(C)c2ccccc21 3.17

Give Percent Effect for O=C(NCCNc1cnccn1)N1CCN(Cc2cccnc2)CC1 7.29

Give the measured Percent Effect for CCCN(C(=O)c1ccccn1)c1nc2c(s1)CCc1c-2cnn1C -6.45

Give a short answer stating reported Percent Effect for Cc1cc(C)n(CC2CCCN2CC(=O)NC2CCOCC2)n1 (centres undefined) . 1.94

Supply measured Percent Effect of Cc1nnc(N2C[C@@H](OCCCn3cccn3)[C@H]3OCCC[C@H]32)s1 in your reply. 7.29

For the compound CNC(=O)CN1CCCC12CCN(C(=O)c1ccsc1)CC2 , report Percent Effect. 6.76

Identify the reported Percent Effect for the following entry. c1csc(-c2nc(CN3CCOC(Cn4cccn4)C3)co2)c1 (centres undefined) 7.39

For Cc1cc(C)nc(Nc2cccc(C3CCCN(C)C3)n2)n1 (centres undefined) , write its Percent Effect. 2.15

Give the reported Percent Effect for this compound. CCn1c(CN(C)C)nnc1C1CCN(c2ccnc(C)c2)CC1 5.26

State, in one line, measured Percent Effect of O=C1O[C@@H]2CN(Cc3cccc(F)c3)C[C@@H]2N1CCCN1CCOCC1 3.83

Check the records and state Percent Effect for O=C(NCCNS(=O)(=O)c1ccc2c(c1)CCCC2)c1ccoc1 6.01

Please report Percent Effect for the following compound: COc1ccc(N2CCC(C(=O)/N=c3/[nH]ccs3)CC2)nn1 5.29
